B1: HDV Ribozyme (parent)
chain: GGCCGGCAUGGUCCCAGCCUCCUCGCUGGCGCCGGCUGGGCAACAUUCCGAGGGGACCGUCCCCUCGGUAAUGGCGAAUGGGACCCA

variants of: B1; test: self-cleavage, relative activity (ratio to wild type); higher = more cleavage; co-transcriptional
assay_metric: self-cleavage

Some entries whose results are on file:
mutant_name: U12A G68C
self-cleavage: 0.0755
//
mutant_name: G80C A83U
self-cleavage: 0.164
//
mutant_name: C4A C44G
self-cleavage: 0.0665

Hey, can you go through the list below and give me self-cleavage for every item?
1. C33A U46G
2. A45U G81A
3. G59U A71C
4. C33A U37A
5. A56C C66U
6. U9G A71G
7. C41G G68C
8. G28A C66G

1: 0.0615; 2: 0.259; 3: 0.895; 4: 0.151; 5: 0.861; 6: 0.831; 7: 0.483; 8: 0.138

Go through the list and state self-cleavage for each entry.
1. G55C G67A
2. C4G A77U
3. U23A A45C
4. C3U G67A
5. C66A U72C

[1.08, 0.0354, 0.344, 0.822, 0.229]

Provide the reported self-cleavage of each entry below, same order.
1. G1U A78G
2. G25C C32A
3. C57A C85G

0.346
0.148
0.748

Hi! Can you tell me self-cleavage for each of these variants?
1. G11A U23G
2. G2C A71C
3. G2C C7A
4. C3A C24G
5. C41A A77U
6. C13A G54U
7. G28U C32U

1. 0.13
2. 0.0723
3. 0.0268
4. 0.089
5. 0.332
6. 0.188
7. 0.041

Value sought for every listed variant: self-cleavage.
1. C61A A77G
2. G2A C33G

[1.03, 0.0378]

// for each variant below, give its self-cleavage
1. U65C A78G
2. C4A U37C

1: 0.731; 2: 0.415

Batch request: self-cleavage for each of the following variants.
1. U60G U69C
2. C21G A70C
3. G17U C41G
4. G10U A70C
5. G25C U69C

[1.09, 0.225, 0.0462, 0.678, 0.175]

Parameter requested: self-cleavage. Apply to each item below.
1. G31A C57G
2. C49G G54U
3. C13A C32U

1. 0.529
2. 0.519
3. 0.375

Source listed as the RNAGym collection of RNA variant scans (doi:10.7554/elife.80360).
